- target: GSK3β kinase (Homo sapiens, UniProt P49841)
- Sequence (P49841 whole entry): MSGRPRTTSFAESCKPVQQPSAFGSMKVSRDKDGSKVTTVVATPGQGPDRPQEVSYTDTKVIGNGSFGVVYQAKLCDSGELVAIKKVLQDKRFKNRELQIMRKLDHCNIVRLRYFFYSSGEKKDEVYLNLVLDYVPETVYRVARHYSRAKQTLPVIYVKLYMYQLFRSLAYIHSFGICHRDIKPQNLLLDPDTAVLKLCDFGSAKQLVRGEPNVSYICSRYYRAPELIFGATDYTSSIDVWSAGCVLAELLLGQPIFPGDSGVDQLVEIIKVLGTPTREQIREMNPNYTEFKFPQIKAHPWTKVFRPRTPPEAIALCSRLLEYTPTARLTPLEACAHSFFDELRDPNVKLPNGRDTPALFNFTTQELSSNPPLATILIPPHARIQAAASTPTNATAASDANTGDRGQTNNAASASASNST
- assay comment: GSK3β kinase activity (Ser/Thr 09 peptide Z-lyte FRET assay)
- Type: biochemical
- protocol conditions: recombinant kinase, 46 μM ATP, one hour at room temperature; read-out: EC50
Rule: measured EC50 below 3 µM gets label 1; anything equal to or greater than 3 µM gets label 0.

# compound, target, class name
records = [
    ("Cc1ncc(-c2cnc3cnc(NC(=O)C4CCN(C5COC5)CC4)cc3c2)s1", "GSK3β kinase (Homo sapiens, UniProt P49841)", "label 0"),
    ("CC(C)OC(=O)N1CCC(n2cc(C(=O)Nc3ncc4ccc(-c5cnn(C)c5)cc4n3)cn2)CC1", "GSK3β kinase (Homo sapiens, UniProt P49841)", "label 0"),
    ("CN(C)CCNc1cc(C(=O)Nc2cc3cc(-c4cnn(C)c4)cnc3cn2)ccn1", "GSK3β kinase (Homo sapiens, UniProt P49841)", "label 0"),
    ("Cn1cc(-c2ccc3cnc(NC(=O)c4ccc5nccnc5c4)nc3c2)cn1", "GSK3β kinase (Homo sapiens, UniProt P49841)", "label 0"),
    ("CN1CCN(c2cc(C(=O)Nc3cc4cc(-c5ccc(N)nc5)cnc4cn3)ccn2)CC1", "GSK3β kinase (Homo sapiens, UniProt P49841)", "label 0"),
    ("CN1CCN(c2cc(C(=O)Nc3cc4cc(-c5cnn(C)c5)ncc4cn3)ccn2)CC1", "GSK3β kinase (Homo sapiens, UniProt P49841)", "label 1"),
    ("Cc1ncc(-c2ccc3cnc(NC(=O)C4CCN(C)CC4)cc3n2)s1", "GSK3β kinase (Homo sapiens, UniProt P49841)", "label 1"),
]

Turning now to a further compound:
Exercise: # check: EC50 < 3 µM for CC(C(=O)Nc1cc2cc(-c3cnn(C)c3)cnc2cn1)N1CCCCC1 (centres unmarked)
Key: label 0

----------
- Test system: SW480 colon carcinoma cells
- assay comment: Cell viability assay (CellTiter-Glo)
- protocol conditions: Homo sapiens, SW480, read-out: percent inhibition at 10 μM
// thresholds for inhibition at 10 µM classes: range 1 (below 20%), range 2 (20% to below 30%), range 3 (30% or more)

Worked set:
# compound, target, class name
measured = [
    ("O=C(Nc1ncc2ccc(-c3cncc(NC4CCNCC4)n3)cc2n1)C1CCOCC1 [Compound 1783]", "SW480 colon carcinoma cells", "range 3"),
    ("CO[C@H]1CC[C@@H](C(=O)Nc2ncc3ccc(-c4nnc(C)s4)cc3n2)CC1 [Compound 1612]", "SW480 colon carcinoma cells", "range 2"),
]

Exercise: Please classify: Cc1ncc(-c2ccc3cnc(NC(=O)Cn4ccnc4)cc3n2)o1 [Compound 589]
Key: range 2

Exercise: Please classify: O=C(Nc1ncc2ccc(-c3cncc(NCC4(F)CNC4)n3)cc2n1)C1CC1 [Compound 1777]
Key: range 2

Exercise: Please classify: Cc1nnc(-c2cnc3cnc(NC(=O)CN4C5CCC4CC5)cc3c2)s1 [Compound 3446]
Key: range 1

Exercise: Please classify: O=C(Nc1ncc2ccc(-c3cncs3)cc2n1)[C@H]1CC[C@H](CO)CC1 [Compound 4586]
Key: range 2

Exercise: Please classify: Cn1cc(-c2ccc3cnc(NC(=O)C4CCN(CC5(C)COC5)CC4)nc3c2)nn1 [Compound 1254]
Key: range 1

Exercise: Please classify: Cc1ncc(-c2ccc3cnc(NC(=O)Cn4ccnc4)nc3c2)o1 [Compound 1495]
Key: range 2

----------
- Tested on: SW480 colon carcinoma cells
- assay comment: Cell viability assay (CellTiter-Glo)
- protocol conditions: Homo sapiens, SW480, read-out: percent inhibition at 10 μM
Please enter Satisfied where inhibition at 10 µM is greater than or equal to 20%, and Not satisfied where it is lower.

# compound, target, class name
measured = [
    ("Cn1cc(-c2cnc3cnc(NC(=O)C4CCN(CC5(C(F)(F)F)CC5)CC4)cc3c2)nn1", "SW480 colon carcinoma cells", "Satisfied"),
    ("Cc1nnc(-c2ccc3cnc(NC(=O)C4CCN(C(=O)c5ccccc5)CC4)nc3c2)s1", "SW480 colon carcinoma cells", "Not satisfied"),
    ("CN1CC(COc2cncc(-c3ccc4cnc(NC(=O)c5ccc(F)cc5)cc4n3)n2)C1", "SW480 colon carcinoma cells", "Satisfied"),
]

Exercise: In plain terms: is recorded inhibition at 10 µM at least 20% for `Cc1ncc(-c2ccc3cnc(NC(=O)N4CCC(N(C)C)CC4)cc3n2)s1` ?
Key: Not satisfied

Exercise: In plain terms: is recorded inhibition at 10 µM at least 20% for `COC1CCN(CC(=O)Nc2cc3nc(-c4cn(C)nn4)ccc3cn2)CC1` ?
Key: Satisfied

----------
- Test system: α-smooth muscle actin (aSMA) positive LL29 cells
- assay comment: Inhibition of the fibrotic process: αSMA staining in TGF-β1 treated LL29 fibroblasts from IPF patients
- protocol conditions: Homo sapiens, Fibroblast, read-out: percentage in parentheses after EC50 >10
measured property: inhibition at 10 µM (%)
Kindly provide the numeric value in % only, without the unit symbol.

# compound, inhibition at 10 µM (%)
rows = [
    ("CC(F)(F)CN1CCC(C(=O)Nc2cc3cc(-c4cnco4)ncc3cn2)CC1 [Compound 4167]", 43),
    ("Cc1ncc(-c2ccc3cnc(NC(=O)[C@H]4CC[C@H](CO)CC4)nc3c2)o1 [Compound 1447]", 35.5),
    ("Cn1cc(-c2cc3cc(NC(=O)c4ccc5ccoc5c4)ncc3cn2)cn1 [Compound 3836]", 10),
    ("CN1CCCN(c2cc(C(=O)Nc3cc4cc(-c5cn(C)nn5)cnc4cn3)ccn2)CC1 [Compound 3099]", 44.4),
    ("CN1CCN(c2ncc(C(=O)Nc3ncc4ccc(-c5cnn(C)c5)cc4n3)s2)CC1 [Compound 4570]", 5.5),
    ("CC(C)Oc1ccc(C(=O)Nc2cc3cc(-c4cnc5n4CCNC5)cnc3cn2)cc1 [Compound 3240]", 15.9),
    ("Cc1nnc(-c2cnc3cnc(NC(=O)C4CCN(C(=O)c5ccccc5)CC4)cc3c2)s1 [Compound 3439]", 14.3),
]

Kindly review the next compound as well.
Measured inhibition at 10 µM of CC(C)Nc1cncc(-c2ccc3cnc(NC(=O)c4cn(C5CCN(CCF)CC5)nn4)cc3n2)n1 [Compound 863] : 41

----------
Attribute: inhibition at 10 µM
- System: SW480 colon carcinoma cells
- assay comment: Cell viability assay (CellTiter-Glo)
- protocol conditions: Homo sapiens, SW480, read-out: percent inhibition at 10 μM
Kindly provide the numeric value in % only, without the unit symbol.

Measured inhibition at 10 µM of CN1CCN(c2cc(C(=O)Nc3cc4cc(-c5cn(C)nn5)cnc4cn3)ccn2)CC1 [Compound 3098] : 14.4

----------
Attribute: pEC50
- target: DYRK1A kinase (Homo sapiens, UniProt Q13627)
- assay comment: DYRK1A kinase activity (Ser/Thr 18 peptide Z-lyte FRET assay);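 also: kinase activity read as coumarin/fluorescein emission ratio after development step, with unphosphorylated and phosphorylated peptide forms setting 0% and 100% controls, values from dose-response curves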
- protocol conditions: recombinant DYRK1A, 30 μM ATP, one hour at room temperature
Answer as the number alone; pEC50 is minus log10 of concentration in mol/L.

Consider the reported pEC50 for these compounds:
# compound, pEC50
data = [
    ("O=C(Nc1cc2cc(-c3cncc(N[C@H]4CCNC[C@@H]4F)n3)cnc2cn1)C1CC1", 8.10),
    ("CN1CCC(Oc2ccc(C(=O)Nc3cc4cc(-c5cnn(C)c5)ncc4cn3)cc2)CC1", 8.10),
    ("O=C(Nc1cc2cc(-c3cncc(NCC4(F)CNC4)n3)cnc2cn1)C1CC1", 8.00),
    ("Cc1nnc(-c2ccc3cnc(NC(=O)CN4C5CCC4CC5)nc3c2)s1", 6.30),
    ("CN1CCc2ccc(C(=O)Nc3cc4cc(-c5cnn(C)c5)ncc4cn3)cc2C1", 8.00),
]

Measured pEC50 of `O=C(Nc1ncc2ccc(-c3cncc(N[C@H]4CCNC[C@@H]4F)n3)cc2n1)C1CC1` : 8.15

Measured pEC50 of `Cc1nnc(-c2cc3cc(NC(=O)c4ccnc(N5CCN(C)CC5)c4)ncc3cn2)s1` : 6.60

Measured pEC50 of `Cn1cc(-c2cnc3cnc(NC(=O)[C@H]4CCCN4)cc3c2)cn1` : 6.06

Measured pEC50 of `O=C(Nc1ncc2ccc(-c3cncs3)cc2n1)C1CCN(C(=O)CN2CCCC2)CC1` : 8.15

Measured pEC50 of `O=C(Nc1ncc2ccc(-c3cncc(NCC4(F)CNC4)n3)cc2n1)C1CC1` : 8.30

Measured pEC50 of `O=C(Nc1ncc2ccc(-c3cncs3)cc2n1)C1CCN(C2COC2)CC1` : 7.33

Measured pEC50 of `Cn1cc(-c2ccc3cnc(NC(=O)C4CCNCC4)nc3c2)cn1` : 7.21

Measured pEC50 of `Cn1cc(-c2ccc3cnc(NC(=O)c4ccc5ccoc5c4)nc3c2)cn1` : 7.82

Measured pEC50 of `Cn1cncc1-c1cnc2cnc(NC(=O)C3CCC(F)(F)CC3)cc2c1` : 8.05

Measured pEC50 of CC(C(=O)Nc1cc2cc(-c3cnn(C)c3)ncc2cn1)N1CCCCC1 (centres unmarked) : 7.19

Measured pEC50 of `Cn1cc(-c2cnc3cnc(NC(=O)CCc4ccccc4)cc3c2)cn1` : 7.55

Measured pEC50 of `Cc1nnc(-c2cnc3cnc(NC(=O)CN4C5CCC4CC5)cc3c2)s1` : 5.68
